Tested on: SW626
EXPERIMENT SUMMARY: Confirmatory qHTS for gynecologic anti-cancer compounds from libraries of approved drugs and bioactive compounds; further: nearly all actives have a fitted effect of over 55% in size
TEST PARAMETERS: gynecologic cancer cell panel viability, ATPlite luminescence, 48 h; series mostly up to 57.6 µM
Inconclusive results are not listed. The source made the active and inactive calls. The call rests on the fitted dose curve; in most records, active means well fitted cell-killing curve with a large enough effect; inconclusive means small, poorly fitted or top-dose-only effect, or effect the other way; inactive means no such curve, though single readings can be large or run the other way.
Return exactly one item of Yes = active, No = inactive

// known answers, use as guide
Nc1nccc(Oc2ccc(NC(=O)c3c[nH]cc(-c4ccc(F)cc4)c3=O)cc2F)c1Cl	No
Cc1cnc(Nc2ccc(OCCN3CCCC3)cc2)nc1Nc1cccc(S(=O)(=O)NC(C)(C)C)c1	Yes
Cc1cnc(Nc2ccc(CN3CCOCC3)cc2)nc1Nc1cccc(S(=O)(=O)NC(C)(C)C)c1	Yes
NC(=O)c1ccc2nc(-c3ccc(Oc4ccc(Cl)cc4)cc3)[nH]c2c1	No
O=C1Cc2cc(CCN3CCN(c4nsc5ccccc45)CC3)c(Cl)cc2N1	No
CC(C)C[C@H](NC(=O)[C@@H](NC(=O)c1cccc(-c2ccccc2)n1)[C@@H](C)O)B(O)O	Yes

Could you kindly confirm the outcome this assay logged for NC(=O)c1cccc2cn(-c3ccc([C@@H]4CCCNC4)cc3)nc12 ?
No

For CCCCN(CCCC)CC(O)c1cc(Cl)cc2c1-c1ccc(Cl)cc1/C2=C/c1ccc(Cl)cc1 (stereo unspecified) then?
No

Proceed to CCN(CC)CCCC(C)Nc1ccnc2cc(Cl)ccc12 (stereo unspecified)
No

Can you handle CC(C)[C@@H](CS(=O)(=O)C(C)C)N1C(=O)[C@@](C)(CC(=O)O)C[C@H](c2cccc(Cl)c2)[C@H]1c1ccc(Cl)cc1 next?
No

Please answer likewise for COc1cccc2c1C(=O)c1c(O)c3c(c(O)c1C2=O)C[C@@](O)(C(=O)CO)C[C@@H]3O[C@H]1C[C@H](N)[C@H](O[C@@H]2CCCCO2)[C@H](C)O1
Yes

---

System: SW626
EXPERIMENT SUMMARY: Confirmatory qHTS for gynecologic anti-cancer compounds from libraries of approved drugs and bioactive compounds; further: nearly all actives have a fitted effect of over 55% in size
TEST PARAMETERS: gynecologic cancer cell panel viability, ATPlite luminescence, 48 h; series mostly up to 57.6 µM
Records with an inconclusive call do not appear. Activity calls are given as the source filed them. Calls come from the whole dose curve; as a rule, active = well fitted cell-killing curve with a large enough effect; inconclusive = small, poorly fitted or top-dose-only effect, or effect the other way; inactive = no such curve, though single readings can be large or run the other way.
In this exercise, the only acceptable responses are 1 for active, -1 for inactive

Use the examples below as a reference point.
Cc1cnc(Nc2ccc(F)cc2Cl)nc1-c1c[nH]c(C(=O)NC(CO)c2cccc(Cl)c2)c1 (stereo unspecified)	-1
Cc1ccc(C(=O)N(CCCN)C(c2nc3cc(Cl)ccc3c(=O)n2Cc2ccccc2)C(C)C)cc1 (stereo unspecified)	1
OCc1ccc(-c2ccc(-c3ccc(CO)s3)o2)s1	1
Nc1ncnc2c1ncn2[C@@H]1O[C@H](CO)C[C@H]1O	-1
Cc1cc(SCc2sc(-c3ccc(C(F)(F)F)cc3)nc2C)ccc1OCC(=O)O	-1

Any idea what this test logged for Cc1nc(N)nc(N)c1-c1ccc(Cl)c(Cl)c1 ?
1

Next up: CC[C@@]1(O)C(=O)OCc2c1cc1n(c2=O)Cc2cc3c(CN(C)C)c(O)ccc3nc2-1
1

Continue with Cc1nc(Nc2n[nH]c3c2CN(C(=O)NC(CN(C)C)c2ccccc2)C3(C)C)c2sccc2n1 (stereo unspecified)
-1

Similarly, CCCS(=O)c1ccc2nc(NC(=O)OC)[nH]c2c1 (stereo unspecified) ?
-1

Also need O=C(c1ccc(F)c(F)c1Nc1ccc(I)cc1F)N1CC(O)([C@@H]2CCCCN2)C1 , thanks.
1

Likewise for COc1cc(N2CCC(N3CCN(C)CC3)CC2)ccc1Nc1ncc(Cl)c(Nc2ccccc2S(=O)(=O)C(C)C)n1 ?
1

Further, for Cc1c(C)n(Cc2ccc(-c3ccccc3C(=O)O)cc2)c2ccc(C(=O)N[C@@H](C)c3ccc([N+](=O)[O-])cc3)cc12 ?
-1

For CCC1C(=O)N(C)c2cnc(Nc3ccc(C(=O)NC4CCN(C)CC4)cc3OC)nc2N1C1CCCC1 (stereo unspecified) then?
1

Item: CC[C@]1(O)C[C@H]2CN(CCc3c([nH]c4ccccc34)[C@@](C(=O)OC)(c3cc4c(cc3OC)N(C=O)[C@H]3[C@@](O)(C(=O)OC)[C@H](OC(C)=O)[C@]5(CC)C=CCN6CC[C@]43[C@@H]65)C2)C1
-1

Check O=C(Nc1cccnc1)N1CCC(Cc2cccc(Oc3ccc(C(F)(F)F)cn3)c2)CC1 too.
-1

Same read-out for Cc1csc(NC(=O)c2sc3nc4c(c(C(F)(F)F)c3c2N)CCC4)n1 ?
1

Entry to check: O=c1[nH]c(=O)n([C@H]2C[C@H](O)[C@@H](CO)O2)cc1C(F)(F)F
-1

Ok, now O=c1c2ccccc2nc2n1CCc1c-2[nH]c2ccccc12
-1

Try the compound CN(C)c1ccc(-c2nc3ncc(Cl)c(N4CCN(CC(=O)Nc5nccs5)CC4)c3[nH]2)cc1
-1

Origin of measurements: PubChem BioAssay AID1345085
